Organism: Cavia porcellus
Assay: Antagonist activity at muscarinic M3 receptor in guinea pig isolated trachea assessed as smooth muscle relaxation
assay_metric: EC50

Complete the entry with EC50 for COc1cc(NC(=O)CCN2CCC(OC(=O)Nc3ccccc3-c3ccccc3)CC2)c(Cl)cc1CNC[C@H](O)c1ccc(O)c2[nH]c(=O)ccc12 [BATEFENTEROL]
50 nM

---

Test: Oral bioavailability in male Sprague-Dawley rat at 0.25 mg/kg
Assay type: ADME, organism-based
Details: in vivo
assay_metric: bioavailability

Complete the entry with bioavailability for COc1cc(NC(=O)CCN2CCC(OC(=O)Nc3ccccc3-c3ccccc3)CC2)c(Cl)cc1CNC[C@H](O)c1ccc(O)c2[nH]c(=O)ccc12 [BATEFENTEROL]
< 0.45%

---

Target: Muscarinic acetylcholine receptor M3 (Homo sapiens, UniProt P20309)
Sequence (P20309 whole entry): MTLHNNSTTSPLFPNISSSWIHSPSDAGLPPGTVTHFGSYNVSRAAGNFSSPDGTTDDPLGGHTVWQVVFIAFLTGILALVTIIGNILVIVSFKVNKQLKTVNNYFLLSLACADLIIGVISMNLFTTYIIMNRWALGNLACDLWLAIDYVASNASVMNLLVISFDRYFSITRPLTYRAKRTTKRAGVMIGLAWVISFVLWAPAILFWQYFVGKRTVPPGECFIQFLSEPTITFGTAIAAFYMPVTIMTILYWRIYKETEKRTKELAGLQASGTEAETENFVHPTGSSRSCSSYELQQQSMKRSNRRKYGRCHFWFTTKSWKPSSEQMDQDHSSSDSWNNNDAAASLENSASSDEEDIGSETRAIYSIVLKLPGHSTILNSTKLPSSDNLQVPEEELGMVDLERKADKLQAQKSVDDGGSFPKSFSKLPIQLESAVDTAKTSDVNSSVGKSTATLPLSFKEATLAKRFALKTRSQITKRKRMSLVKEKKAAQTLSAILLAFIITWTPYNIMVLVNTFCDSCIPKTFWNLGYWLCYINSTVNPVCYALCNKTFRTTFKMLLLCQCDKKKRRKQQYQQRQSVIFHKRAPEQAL
Binary label based on Ki with cut-off 0.2 nM: below gives yes, not below gives no.

I wonder whether COc1cc(C(=O)NCCN2CCC(OC(=O)Nc3ccccc3-c3ccccc3)CC2)ccc1CNC[C@H](O)c1ccc(O)c2[nH]c(=O)ccc12 has Ki below 0.2 nM. Can you tell?
no

I wonder whether O=C(Nc1ccccc1-c1ccccc1)OC1CCN(CCNC(=O)c2ccc(CNC[C@H](O)c3ccc(O)c4[nH]c(=O)ccc34)cc2)CC1 has Ki below 0.2 nM. Can you tell?
no

I wonder whether Cc1cc(CNC[C@H](O)c2ccc(O)c3[nH]c(=O)ccc23)ccc1NC(=O)CCN1CCC(OC(=O)Nc2ccccc2-c2ccccc2)CC1 has Ki below 0.2 nM. Can you tell?
yes

I wonder whether COc1cc(NC(=O)CCN2CCC(OC(=O)Nc3ccccc3-c3ccccc3)CC2)c(C)cc1CNC[C@H](O)c1ccc(O)c2[nH]c(=O)ccc12 has Ki below 0.2 nM. Can you tell?
no

I wonder whether COc1cc(NC(=O)CCN2CCC(OC(=O)Nc3ccccc3-c3ccccc3)CC2)ccc1CNC[C@H](O)c1ccc(O)c2[nH]c(=O)ccc12 has Ki below 0.2 nM. Can you tell?
yes

---

Assay: Half life in human liver microsomes at 3 uM after 30 mins by HPLC-UV analysis
Assay type: ADME
assay_metric: half-life at 3 µM (min)
# number only, unit min dropped from output

Complete the entry with half-life at 3 µM for COc1cc(NC(=O)CCN2CCC(OC(=O)Nc3ccccc3-c3ccccc3)CC2)c(Cl)cc1CNC[C@H](O)c1ccc(O)c2[nH]c(=O)ccc12
11.3

---

Target: Beta-2 adrenergic receptor (Homo sapiens, UniProt P07550)
Sequence (P07550 whole entry): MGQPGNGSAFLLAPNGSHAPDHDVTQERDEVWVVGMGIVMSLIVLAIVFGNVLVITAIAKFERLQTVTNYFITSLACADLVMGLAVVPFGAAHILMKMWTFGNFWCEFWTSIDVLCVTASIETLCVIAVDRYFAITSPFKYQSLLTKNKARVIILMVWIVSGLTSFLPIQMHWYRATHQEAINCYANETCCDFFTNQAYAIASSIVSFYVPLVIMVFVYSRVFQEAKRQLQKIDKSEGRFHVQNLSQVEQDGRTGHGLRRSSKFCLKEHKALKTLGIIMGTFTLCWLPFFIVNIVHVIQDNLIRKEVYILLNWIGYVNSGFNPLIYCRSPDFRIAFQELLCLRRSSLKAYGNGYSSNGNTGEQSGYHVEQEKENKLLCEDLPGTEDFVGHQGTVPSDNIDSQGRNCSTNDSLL
Experiment: Agonist activity at human beta2 adrenergic receptor expressed in HEK293 cells assessed as cAMP accumulation using [125I]cAMP by scintillation counting
Exercise: for every item that follows, state its recorded pEC50.
// field semantics: pEC50 = negative decimal log of concentration (mol/L)

Enter recorded pEC50 with Beta-2 adrenergic receptor (Homo sapiens, UniProt P07550) for CN(CCN1CCC(OC(=O)Nc2ccccc2-c2ccccc2)CC1)C(=O)c1ccc(CNC[C@H](O)c2ccc(O)c3[nH]c(=O)ccc23)cc1 here.
9.60

Enter recorded pEC50 with Beta-2 adrenergic receptor (Homo sapiens, UniProt P07550) for Cc1cc(CNC[C@H](O)c2ccc(O)c3[nH]c(=O)ccc23)ccc1N(C)C(=O)CCN1CCC(OC(=O)Nc2ccccc2-c2ccccc2)CC1 here.
8.40

Enter recorded pEC50 with Beta-2 adrenergic receptor (Homo sapiens, UniProt P07550) for COc1ccc(CCNC[C@H](O)c2ccc(O)c3[nH]c(=O)ccc23)cc1NC(=O)CCN1CCC(OC(=O)Nc2ccccc2-c2ccccc2)CC1 here.
8.90

Enter recorded pEC50 with Beta-2 adrenergic receptor (Homo sapiens, UniProt P07550) for O=C(CCN1CCC(OC(=O)Nc2ccccc2-c2ccccc2)CC1)Nc1ccc(CNC[C@H](O)c2ccc(O)c3[nH]c(=O)ccc23)cc1Cl here.
9.60

Enter recorded pEC50 with Beta-2 adrenergic receptor (Homo sapiens, UniProt P07550) for O=C(CCN1CCC(OC(=O)Nc2ccccc2-c2ccccc2)CC1)Nc1ccc(CNC[C@H](O)c2ccc(O)c3[nH]c(=O)ccc23)cc1 here.
9.60

Enter recorded pEC50 with Beta-2 adrenergic receptor (Homo sapiens, UniProt P07550) for Cc1cc(CNC[C@H](O)c2ccc(O)c3[nH]c(=O)ccc23)ccc1NC(=O)CCN1CCC(OC(=O)Nc2ccccc2-c2ccccc2)CC1 here.
9.70

Enter recorded pEC50 with Beta-2 adrenergic receptor (Homo sapiens, UniProt P07550) for O=C(CCN1CCC(OC(=O)Nc2ccccc2-c2ccccc2)CC1)N[C@H]1CC[C@H](CNC[C@H](O)c2ccc(O)c3[nH]c(=O)ccc23)CC1 here.
9.80

Enter recorded pEC50 with Beta-2 adrenergic receptor (Homo sapiens, UniProt P07550) for O=C(Nc1ccccc1-c1ccccc1)OC1CCN(CCNC(=O)c2ccc(CNC[C@H](O)c3ccc(O)c4[nH]c(=O)ccc34)cc2)CC1 here.
9.30

Enter recorded pEC50 with Beta-2 adrenergic receptor (Homo sapiens, UniProt P07550) for Cc1cc(NC(=O)CCN2CCC(OC(=O)Nc3ccccc3-c3ccccc3)CC2)ccc1CNC[C@H](O)c1ccc(O)c2[nH]c(=O)ccc12 here.
9.70
